assay details: Liver microsome stability assay, human
study conditions: compared to parent compound CH-2-77
readout kind: fold improvement of half-life in human liver microsomes (fold)

compound="COc1cc(C(=O)c2cc(C)cc(-c3ccc(C)cc3)n2)cc(OC)c1OC [Compound 50a]" reported=3

A: COc1cc(-c2n[nH]c3ccc(-c4ccc(C)c(O)c4)nc23)cc(OC)c1OC
B: COc1cc(C(=O)c2cc(OC)c(OC)c(OC)c2)nc(-c2ccc(C)c(O)c2)c1 [Compound 55b]
Ask | Could you check which of A and B has a smaller value for fold improvement of half-life in human liver microsomes? Indicate which entry you chose by stating its label.
Reply | B

====

Tested on: three human malignant melanoma cell lines and three breast cancer cell lines
assay details: MTS cell proliferation assay, average over the panel
Format: cell-based
study conditions: Homo sapiens, read-out: average IC50
pIC50: −log10 of the molar value.
readout kind: pIC50

Past entries and their recorded results:
compound=CCc1c(OC)cc(C(=O)c2cccc(-c3ccc(C)c(O)c3)n2)cc1OC reported=7.74
compound="COc1cc(C(=O)c2cc(C)cc(-c3ccc(C)cc3)n2)cc(OC)c1OC [Compound 50a]" reported=8.11
compound="COc1cc(C(=O)c2cncc(-c3ccc(C)c(O)c3)n2)cc(OC)c1OC [Compound 40a]" reported=8.04
compound=COc1cc(-c2n[nH]c3ccc(-c4ccc(C)c(O)c4)nc23)cc(OC)c1OC reported=7.47
compound=COc1cc(C(=O)c2cccc(-c3ccc(C)cc3)n2)cc2c1OCCO2 reported=8.42
compound="COc1cc(C(=O)c2ccnc(-c3ccc(C)c(O)c3)n2)cc(OC)c1OC [Compound 46a]" reported=8.09
compound=COc1cc(C(=O)c2cccc(-c3ccc(N(C)C)cc3)n2)cc(OC)c1OC reported=7.31
compound="COc1cc(C(=O)c2cccc(-c3ccc(C)cc3)n2)cc(OC)c1OC [CH-2–1, reference compound]" reported=8.43

A: COc1cc(C(=O)c2cncc(-c3cccc4[nH]ncc34)n2)cc(OC)c1OC [Compound 40c]
B: COc1cc(C(=O)c2cc(F)cc(-c3ccc(C(F)F)cc3)c2)cc(OC)c1OC
C: COc1cc(C(=O)c2cncc(-c3ccc(C)cc3)n2)cc(OC)c1OC
D: COc1cc(C(=O)c2cccc(-c3ccc(C)c(O)c3)n2)cc(OC)c1OC
Ask | // ranking: key=pIC50, reverse=True Give me the labels in the order the question wants.
Reply | D, C, A, B
(D: 8.60, C: 8.38, A: 7.47, B: 7.22)

a: COc1cc(C(=O)c2ccnc(-c3c[nH]c4ccccc34)n2)cc(OC)c1OC [Compound 46b]
b: COc1cc(C(=O)c2nc(-c3ccc(C)c(O)c3)[nH]c2Br)cc(OC)c1OC
Ask | Compare a and b and name the one whose reported pIC50 is smaller. Reply with the label of the item you choose.
Reply | b

All values here come from paper PMC9206500.
